Assay system K. pneumoniae (ATCC 13383); read-out recorded as MIC, K. pneumoniae.
Give the value, in units of µg/mL, as a plain number.

Worked set:
| COMPOUND | MIC, K. pneumoniae (µg/mL) |
| --- | --- |
| CC(C)CCC(=O)N1CC(=O)N[C@@H](Cc2ccccc2)CN(C(=O)CCC(C)C)CC(=O)N[C@@H](CCCCN)CN(C(=O)CCc2ccccc2)CC(=O)N[C@@H](CCCCN)CN(C(=O)CCc2ccccc2)CC(=O)N[C@@H](CCCCN)CN(C(=O)CCc2ccccc2)CC(=O)N[C@@H](CCCCN)CN(C(=O)CCc2ccccc2)CC(=O)N[C@@H](Cc2ccccc2)CN(CC(N)=O)C(=O)CCC(=O)N[C@@H](Cc2ccccc2)C1 | 8 |
| CC(C)CCC(=O)N1CC(=O)N[C@@H](Cc2ccccc2)CN(C(=O)CCC(C)C)CC(=O)N[C@@H](Cc2ccccc2)CN(C(=O)CCC(C)C)CC(=O)N[C@@H](CCCCN)CN(C(=O)CCc2ccccc2)CC(=O)N[C@@H](CCCCN)CN(C(=O)CCc2ccccc2)CC(=O)N[C@@H](CCCCN)CN(C(=O)CCc2ccccc2)CC(=O)N[C@@H](Cc2ccccc2)CN(CC(N)=O)C(=O)CCC(=O)N[C@@H](Cc2ccccc2)C1 | 10 |
| CC(C)CCC(=O)N1CC(=O)N[C@@H](CCCCN)CN(C(=O)CCc2ccccc2)CC(=O)N[C@@H](CCCCN)CN(C(=O)CCc2ccccc2)CC(=O)N[C@@H](Cc2ccccc2)CN(CC(N)=O)C(=O)CCC(=O)N[C@@H](CCCCN)CN(C(=O)CCc2ccccc2)CC(=O)N[C@@H](CCCCN)CN(C(=O)CCc2ccccc2)CC(=O)N[C@@H](CCCCN)CN(C(=O)CCc2ccccc2)CC(=O)N[C@@H](Cc2ccccc2)C1 | 20 |

Next compound, please.
# `CC(C)CCC(=O)N1CC(=O)N[C@@H](CCCCN)CN(C(=O)CCc2ccccc2)CC(=O)N[C@@H](Cc2ccccc2)CN(CC(N)=O)C(=O)CCC(=O)N[C@@H](CCCCN)CN(C(=O)CCc2ccccc2)CC(=O)N[C@@H](Cc2ccccc2)CN(C(=O)CCC(C)C)CC(=O)N[C@@H](CCCCN)CN(C(=O)CCc2ccccc2)CC(=O)N[C@@H](CCCCN)CN(C(=O)CCc2ccccc2)CC(=O)N[C@@H](Cc2ccccc2)C1` with K. pneumoniae (ATCC 13383): MIC, K. pneumoniae is 5
